Target: cIAP2-BIR2 (Homo sapiens (Human), UniProt Q13489)
Sequence (Q13489 158-242): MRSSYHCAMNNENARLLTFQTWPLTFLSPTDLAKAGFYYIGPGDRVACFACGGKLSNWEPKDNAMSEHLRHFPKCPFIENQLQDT
Assay: BIR binding assay (FRET competition), cIAP2 BIR2
Protocol: The BIR domain binding assays are FRET based competition assays that utilize His-tagged versions of each of the BIR2 and BIR3 domains from cIAP1, cIAP2, and XIAP (each domain assayed separately) each at a custom optimal concentration and a probe, 200 nM SMAC/DIABLO peptide […] labelled with AlexaFluor647 (part #crb 1110326h, Discovery Peptides). The assay is conducted in 50 mM HEPES, […], 1 mM CHAPS, 5% Glycerol, 1 mM DTT, in dI water with a final pH of 7.4 and final volume of 20 uL. […]
pIC50: −log10 of the molar value.
READOUT TYPE: pIC50

C[C@@H]1CN(CC(=O)N2CC(C)(C)c3[nH]c(=O)c(Cc4ccc(F)cc4)cc32)[C@@H](CN2CCO[C@H](C(=O)N(C)CCCN(C)C(=O)[C@@H]3CN(C[C@H]4CN[C@H](C)CN4CC(=O)N4CC(C)(C)c5[nH]c(=O)c(Cc6ccc(F)cc6)cc54)CCO3)C2)CN1
5.50 to 6.00
C[C@@H]1CN(CC(=O)N2CC(C)(C)c3[nH]c(=O)c(Cc4ccc(Br)cc4)cc32)[C@@H](CN2CCO[C@H](C(=O)NCc3ccc(CNC(=O)[C@@H]4CN(C[C@H]5CN[C@H](C)CN5CC(=O)N5CC(C)(C)c6[nH]c(=O)c(Cc7ccc(Br)cc7)cc65)CCO4)cc3)C2)CN1
6.00 to 7.65
